Target: GDP-loaded KRAS-G12V (Homo sapiens, UniProt P01116, G12V)
Sequence (P01116 1-188 isoform P01116-2 G12V): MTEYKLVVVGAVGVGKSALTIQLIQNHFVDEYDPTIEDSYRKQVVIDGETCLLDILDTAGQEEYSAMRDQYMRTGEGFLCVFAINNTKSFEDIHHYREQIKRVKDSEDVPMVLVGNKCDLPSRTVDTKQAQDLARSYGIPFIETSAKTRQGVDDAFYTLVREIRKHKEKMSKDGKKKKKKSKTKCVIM
Assay: KRAS (GDP) biochemical TR-FRET probe displacement assay, G12V
Format: binding
Settings: 2 hours
Lab note: cut-off is 20 nM. Strictly less in IC50 is yes (1). Exactly 20 nM or more is no (0).

Check out these entries, answers already filled in.
* Cc1c(F)c(N)cc(-c2nc3c4c(nc(OCC56CCCN5CCC6)nc4c2F)N2C[C@@]4(F)CC[C@](F)(N4)[C@@H]2[C@@H](C)C3)c1C(F)(F)F | yes (1)
* Cc1c(F)c(N)cc(-c2nc3c4c(nc(OC[C@@]56CCCN5C[C@H](F)C6)nc4c2F)N2C[C@@]4(F)CC[C@](F)(N4)[C@H]2CCC3)c1C(F)(F)F | no (0)
* C[C@H]1Cc2nc(-c3cc(O)cc4ccc(F)c(F)c34)c(F)c3nc(OCC45CCCN4CCC5)nc(c23)N2C[C@@]3(F)CC[C@](F)(N3)[C@H]12 | yes (1)

# TODO verify IC50 < 20 nM strictly for this molecule: C#Cc1c(F)ccc2cc(N)cc(-c3nc4c5c(nc(OC[C@@]67CCCN6[C@H](COC(C(F)(F)F)(C(F)(F)F)C(F)(F)F)CC7)nc5c3F)N3C[C@@]5(F)CC[C@](F)(N5)[C@H]3CCC4)c12 no (0)

And C#Cc1c(F)ccc2cc(N)cc(-c3nc4c5c(nc(OC[C@]6(C)CN(C)CC/C6=C\F)nc5c3F)N3C[C@@]5(F)CC[C@](F)(N5)[C@@H]3[C@@H](C)C4)c12 ? yes (1)

For C#Cc1c(F)ccc2cccc(-c3nc4c5c(nc(OCC67CCCN6CCC7)nc5c3F)N3C[C@@]5(F)CC[C@](F)(N5)[C@H]3CCC4)c12 then? no (0)

Would you kindly repeat that for N#Cc1c(N)sc2c(F)ccc(-c3nc4c5c(nc(OCC67CCCN6CCC7)nc5c3F)N3C[C@@]5(F)CC[C@](F)(N5)[C@H]3CCC4)c12 ? no (0)

Now the molecule CCC1CCCc2cc(N)cc(-c3nc4c5c(nc(OCC67CCCN6CCC7)nc5c3F)N3C[C@@]5(F)CC[C@](F)(N5)[C@H]3CCC4)c21 (some centres unmarked) no (0)

Further, for C[C@H]1Cc2nc(-c3cc(N)cc4ccc(F)c(F)c34)c(F)c3nc(OCC45CCCN4CCC5)nc(c23)N2C[C@@]3(F)CC[C@](F)(N3)[C@H]12 ? yes (1)

Next molecule up: Nc1cc(-c2nc3c4c(nc(OCC56CCCN5CCC6)nc4c2F)N2C[C@@]4(F)CC[C@](F)(N4)[C@H]2CCC3)c2c(OC(F)(F)F)c(F)ccc2c1 no (0)

Input C#Cc1c(F)ccc2cc(N)cc(-c3nc4c5c(nc(OC[C@@H]6CCCN6C)nc5c3F)N3C[C@@]5(F)CC[C@](F)(N5)[C@H]3CCC4)c12 no (0)

* * *

Tested on: cellular pERK in ASPC-1 (KRAS G12D) cells
Assay: Cell based pERK assay, ASPC-1
Settings: Homo sapiens, ASPC1, 2 h, read-out: AsPC1 pERK EC50
observed-property: pEC50
Reminder that pEC50 means the negative base-10 logarithm of the concentration expressed in mol/L.

I would be grateful if you could share the reported pEC50 for C[C@H]1Cc2nc(-c3cc(O)cc4ccc(F)c(F)c34)c(F)c3nc(OCC45CCCN4CCC5)nc(c23)N2C[C@@]3(F)CC[C@](F)(N3)[C@H]12 . 7.54
